- system: human αVβ1 (Homo sapiens, UniProt P05556+P06756)
- Sequence (P06756 31-992 limits assumed): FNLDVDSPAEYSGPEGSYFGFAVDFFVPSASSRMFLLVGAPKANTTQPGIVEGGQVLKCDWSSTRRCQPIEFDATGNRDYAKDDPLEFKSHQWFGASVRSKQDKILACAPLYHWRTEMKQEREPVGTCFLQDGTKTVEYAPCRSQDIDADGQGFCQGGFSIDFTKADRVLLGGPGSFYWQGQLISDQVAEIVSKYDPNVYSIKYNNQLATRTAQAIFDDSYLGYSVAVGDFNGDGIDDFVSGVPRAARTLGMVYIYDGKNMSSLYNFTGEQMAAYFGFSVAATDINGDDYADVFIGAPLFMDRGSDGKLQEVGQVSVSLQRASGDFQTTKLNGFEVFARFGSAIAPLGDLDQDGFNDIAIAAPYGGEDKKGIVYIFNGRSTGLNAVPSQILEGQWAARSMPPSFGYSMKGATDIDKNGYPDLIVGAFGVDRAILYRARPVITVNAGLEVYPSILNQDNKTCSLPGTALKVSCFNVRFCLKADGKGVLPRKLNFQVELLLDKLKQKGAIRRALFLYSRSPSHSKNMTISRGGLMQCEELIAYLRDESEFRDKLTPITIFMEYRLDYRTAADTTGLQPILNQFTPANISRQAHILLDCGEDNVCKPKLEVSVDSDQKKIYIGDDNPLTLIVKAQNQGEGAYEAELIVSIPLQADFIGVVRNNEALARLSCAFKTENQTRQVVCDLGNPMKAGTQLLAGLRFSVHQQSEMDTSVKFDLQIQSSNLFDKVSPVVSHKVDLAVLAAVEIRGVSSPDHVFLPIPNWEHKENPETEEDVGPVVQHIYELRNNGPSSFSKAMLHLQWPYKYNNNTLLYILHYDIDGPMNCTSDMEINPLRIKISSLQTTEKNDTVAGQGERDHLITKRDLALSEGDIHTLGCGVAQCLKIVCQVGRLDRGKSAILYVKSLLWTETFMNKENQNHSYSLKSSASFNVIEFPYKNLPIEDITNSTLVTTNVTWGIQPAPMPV
- Sequence (P05556 21-728 limits assumed): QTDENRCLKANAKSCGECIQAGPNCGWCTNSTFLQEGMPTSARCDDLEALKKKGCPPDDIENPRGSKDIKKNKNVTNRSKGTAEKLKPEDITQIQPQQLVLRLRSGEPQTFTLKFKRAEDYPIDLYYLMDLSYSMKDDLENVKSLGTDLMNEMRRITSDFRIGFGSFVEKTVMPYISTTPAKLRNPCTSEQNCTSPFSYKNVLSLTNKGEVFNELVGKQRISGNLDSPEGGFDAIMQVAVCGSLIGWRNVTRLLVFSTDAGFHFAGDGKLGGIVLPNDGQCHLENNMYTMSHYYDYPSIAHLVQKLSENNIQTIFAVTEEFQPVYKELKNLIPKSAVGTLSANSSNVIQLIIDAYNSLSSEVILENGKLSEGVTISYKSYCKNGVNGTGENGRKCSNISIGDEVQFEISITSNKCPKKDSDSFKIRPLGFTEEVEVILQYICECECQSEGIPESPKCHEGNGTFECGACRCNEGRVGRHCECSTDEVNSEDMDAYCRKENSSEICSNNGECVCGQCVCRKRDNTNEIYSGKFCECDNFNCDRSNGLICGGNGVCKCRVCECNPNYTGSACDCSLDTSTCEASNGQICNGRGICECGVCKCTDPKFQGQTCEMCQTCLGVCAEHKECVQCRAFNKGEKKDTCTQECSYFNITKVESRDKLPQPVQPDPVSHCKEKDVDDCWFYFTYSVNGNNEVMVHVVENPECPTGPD
- experiment_summary: human αVβ1 HTRF binding assay
- Excerpt: All binding assays used the HTRF (homogeneous time resolved fluorescence) technology from Cisbio International, therefore all assays are described as HTRF binding assays. The assay results for the Examples are listed above together with the characterization data. The HTRF binding assays are established for the following integrins: human αVβ6, human αVβ1, human αVβ3, human αVβ5, and human αVβ8. […]
pIC50: −log10 of the molar value. Structures can show the parent of a compound that is named as a salt.
reported_metric: pIC50

Answered cases to consult:
# compound, reported_metric, experimental_result
rows = [
    ("O=C(O)CC(c1cnc2ccccc2n1)n1ncc2cc(OCCc3ccc4c(n3)NCCC4)ccc21 (racemic)", "pIC50", 6.57),
    ("O=C(O)CC(c1cncc(CO)c1)n1ncc2cc(OCCc3ccc4c(n3)NCCC4)ccc21 (stereo not drawn)", "pIC50", 6.43),
    ("O=C(O)CC(c1cncc(N2CCCC2=O)c1)n1ncc2cc(OCCc3ccc4c(n3)NCCC4)ccc21 (stereo not drawn) [Example 102, TFA]", "pIC50", 7.41),
]

a: O=C(O)CC(c1cncc(C2OCCO2)c1)n1ncc2cc(OCCc3ccc4c(n3)NCCC4)ccc21 (stereo not drawn)
b: O=C(O)CC(c1cnc(N2CCC2)nc1)n1ncc2cc(OCCc3ccc4c(n3)NCCC4)ccc21 (stereo not drawn) [Example 119, TFA]
[ask] Lab notebook, comparison: a versus b , higher pIC50 goes to which? Write the label of whichever entry you select.
[reply] a

====

- system: human αVβ6 (Homo sapiens, UniProt P06756+P18564)
- Sequence (P06756 31-992 limits assumed): as the sequence (P06756 31-992 limits assumed) above
- Sequence (P18564 22-707 limits assumed): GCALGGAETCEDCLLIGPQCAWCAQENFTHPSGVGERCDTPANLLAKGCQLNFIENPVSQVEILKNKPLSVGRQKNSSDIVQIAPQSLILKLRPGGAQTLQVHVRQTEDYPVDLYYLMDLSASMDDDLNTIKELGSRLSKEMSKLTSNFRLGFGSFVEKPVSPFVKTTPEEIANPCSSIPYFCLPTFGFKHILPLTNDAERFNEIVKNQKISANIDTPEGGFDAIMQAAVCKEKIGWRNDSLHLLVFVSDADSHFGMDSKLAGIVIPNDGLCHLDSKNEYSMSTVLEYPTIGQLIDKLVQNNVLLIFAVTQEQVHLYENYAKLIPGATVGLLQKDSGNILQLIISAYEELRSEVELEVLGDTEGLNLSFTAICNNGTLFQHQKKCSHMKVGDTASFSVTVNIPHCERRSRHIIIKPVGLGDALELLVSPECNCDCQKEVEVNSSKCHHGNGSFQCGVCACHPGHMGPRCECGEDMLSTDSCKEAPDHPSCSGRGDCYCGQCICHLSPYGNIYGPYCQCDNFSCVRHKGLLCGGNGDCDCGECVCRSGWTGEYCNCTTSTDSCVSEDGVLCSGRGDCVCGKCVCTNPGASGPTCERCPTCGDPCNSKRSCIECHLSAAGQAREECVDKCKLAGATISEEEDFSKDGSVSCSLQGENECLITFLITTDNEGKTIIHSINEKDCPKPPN
- experiment_summary: human αVβ6 HTRF binding assay
- test_conditions: recombinant human αVβ6 integrin, FITC-conjugated fibronectin
Structures can show the parent of a compound that is named as a salt.
reported_metric: IC50 (µM)

# molecule, reported_metric, experimental_result
rows = [
    ("O=C(N[C@@H](Cn1cc2cc(OCCc3ccc4c(n3)NCCC4)ccc2n1)C(=O)O)OCc1ccccc1", "IC50", 0.021),
]

I: Cn1cc2cc(C(CC(=O)O)n3ncc4cc(OCCc5ccc6c(n5)NCCC6)ccc43)cnc2n1 (stereo not drawn) [Example 120, TFA]
II: CN(C)C(=O)c1cccc(C(CC(=O)O)n2ncc3cc(CCCc4ccc5c(n4)NCCC5)ccc32)c1 (stereo not drawn)
[ask] Param pair: I , II . Output: the one whose IC50 is numerically greater. Give the label of your selection.
[reply] II
(II: 0.061 µM, I: 0.016 µM)

====

- system: human αVβ8 (Homo sapiens, UniProt P06756+P26012)
- Sequence (P26012 43-684 limits assumed, one chain of several): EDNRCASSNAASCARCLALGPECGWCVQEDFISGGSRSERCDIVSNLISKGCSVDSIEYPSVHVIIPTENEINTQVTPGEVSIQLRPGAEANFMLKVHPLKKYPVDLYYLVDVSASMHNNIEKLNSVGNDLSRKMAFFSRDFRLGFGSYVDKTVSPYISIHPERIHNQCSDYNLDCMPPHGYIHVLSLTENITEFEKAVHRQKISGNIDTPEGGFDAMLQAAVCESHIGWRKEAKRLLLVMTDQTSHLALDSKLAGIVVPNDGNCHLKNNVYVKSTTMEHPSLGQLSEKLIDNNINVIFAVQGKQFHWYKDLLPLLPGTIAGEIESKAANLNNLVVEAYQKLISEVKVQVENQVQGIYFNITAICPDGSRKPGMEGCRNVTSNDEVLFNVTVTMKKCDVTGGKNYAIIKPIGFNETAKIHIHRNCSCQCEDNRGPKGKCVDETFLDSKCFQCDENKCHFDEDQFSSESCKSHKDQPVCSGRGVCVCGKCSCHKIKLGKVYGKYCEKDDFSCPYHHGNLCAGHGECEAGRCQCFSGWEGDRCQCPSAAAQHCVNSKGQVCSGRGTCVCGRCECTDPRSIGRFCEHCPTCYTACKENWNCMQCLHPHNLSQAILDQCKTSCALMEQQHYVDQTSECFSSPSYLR
- experiment_summary: human αVβ8 HTRF binding assay
reported_metric: IC50 (µM)

# molecule, unit_descriptor, IC50
rows = [
    ("O=C(O)C[C@@H](c1cnc2ccccc2c1)n1cc2ccc(CCCc3ccc4c(n3)NCCC4)cc2n1 [Example 87]", "µM", 3.3),
]

A: O=C(O)CC(c1cncc(C2OCCO2)c1)n1ncc2cc(OCCc3ccc4c(n3)NCCC4)ccc21 (stereo not drawn) [Example 104]
B: O=C(O)C[C@@H](c1cnc2ccccc2c1)n1cc2ccc(CCC3CCc4cccnc4N3)cc2n1 (stereo partly drawn) [Example 83]
[ask] Sorting ascending by IC50, which comes first: A or B ? Indicate your choice by writing its label.
[reply] A
(A: 1.8 µM, B: 5 µM)

Reference source for all entries: patent US10745384B2
